meta.source: patent US11807650B2

Below, each entry is listed alongside its reported activation at 10 µM.
target: human GRIN1 (transcript variant NR1-3) and GRIN2D expressed in Xenopus oocytes (Homo sapiens); construct: GenScript (GRIN2D synthesis) SC115601; host or cells: Xenopus oocytes injected with cRNA (1 GluN1 : 2 GluN2); test: NR2D oocyte potentiation assay (two-electrode voltage clamp); format: cell-based; conditions: 10 uM test compound; glutamate and glycine 10 μM each; holding potential −40 mV
Sequence (O15399 28-1336, other chains not shown): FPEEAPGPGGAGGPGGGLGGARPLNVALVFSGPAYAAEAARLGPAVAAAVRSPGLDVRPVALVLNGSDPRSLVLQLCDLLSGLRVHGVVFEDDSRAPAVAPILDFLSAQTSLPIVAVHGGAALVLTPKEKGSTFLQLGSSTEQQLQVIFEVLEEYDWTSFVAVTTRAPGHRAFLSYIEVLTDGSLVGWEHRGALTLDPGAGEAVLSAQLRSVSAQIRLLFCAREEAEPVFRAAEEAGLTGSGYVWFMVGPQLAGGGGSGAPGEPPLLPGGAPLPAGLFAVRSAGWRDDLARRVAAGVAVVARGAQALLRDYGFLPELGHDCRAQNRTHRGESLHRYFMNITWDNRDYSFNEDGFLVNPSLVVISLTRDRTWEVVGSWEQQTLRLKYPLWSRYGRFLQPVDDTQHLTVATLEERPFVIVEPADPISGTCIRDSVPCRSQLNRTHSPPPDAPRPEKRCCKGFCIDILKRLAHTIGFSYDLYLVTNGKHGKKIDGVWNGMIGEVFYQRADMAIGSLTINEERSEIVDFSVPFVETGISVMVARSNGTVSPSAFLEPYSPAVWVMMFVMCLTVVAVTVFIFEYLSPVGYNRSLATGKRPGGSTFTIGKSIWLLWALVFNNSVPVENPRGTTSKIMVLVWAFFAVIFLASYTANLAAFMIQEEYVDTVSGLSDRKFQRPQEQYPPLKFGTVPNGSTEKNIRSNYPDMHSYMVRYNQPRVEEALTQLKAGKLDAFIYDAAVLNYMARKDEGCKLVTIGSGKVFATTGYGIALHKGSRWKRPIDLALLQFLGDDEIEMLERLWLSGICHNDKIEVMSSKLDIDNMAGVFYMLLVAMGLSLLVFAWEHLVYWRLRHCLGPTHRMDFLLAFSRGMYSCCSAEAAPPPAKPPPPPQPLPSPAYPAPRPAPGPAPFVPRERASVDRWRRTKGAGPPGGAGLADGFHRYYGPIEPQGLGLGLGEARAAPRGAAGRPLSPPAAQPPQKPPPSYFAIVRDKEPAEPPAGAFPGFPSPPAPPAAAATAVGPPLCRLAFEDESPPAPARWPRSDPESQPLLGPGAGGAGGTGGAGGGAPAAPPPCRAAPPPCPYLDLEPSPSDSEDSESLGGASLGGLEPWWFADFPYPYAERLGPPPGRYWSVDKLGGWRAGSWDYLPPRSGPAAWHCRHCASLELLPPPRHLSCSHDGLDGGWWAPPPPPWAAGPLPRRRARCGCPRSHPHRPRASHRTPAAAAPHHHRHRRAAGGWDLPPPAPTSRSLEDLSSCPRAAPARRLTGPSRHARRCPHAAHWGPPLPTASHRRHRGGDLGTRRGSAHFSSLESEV

In the examples that follow, each entry is paired with its recorded activation at 10 µM.
# COMPOUND, activation at 10 µM
measured = [
    ("COC(C)(C)c1ccc(-c2nc3n(c(=O)c2C#N)CC(C)CS3)cn1 (stereo not drawn) [Example 119]", "10 to 100%"),
    ("CC(C)c1ccc(-c2ccc(-c3nc4n(c(=O)c3C#N)CCCS4)c(F)c2)cc1 [Example 198]", "10 to 100%"),
    ("CC(C)(C)c1ncc(-c2nc3n(c(=O)c2C#N)CCCS3)cc1F [Example 75]", "> 1000%"),
    ("CC1(c2ccc(-c3nc4n(c(=O)c3C#N)CCCS4)cn2)COC1 [Example 154]", "10 to 100%"),
    ("C[C@@H]1CSc2nc(-c3ccc(C(C)(C)C)nc3)c(C#N)c(=N)n2C1 [Example 65]", "> 1000%"),
]

Give its activation at 10 µM value. Item: COC(=O)C1CSc2nc(-c3ccc(C(C)(C)C)nc3)c(C#N)c(=O)n2C1 (stereo not drawn) [Example 86]
100 to 500%

CC(C)C1CSc2nc(-c3ccc(C(C)(C)C)nc3)c(C#N)c(=O)n2C1 (stereo not drawn) [Example 80] , same question.
100 to 500%

Can you check N#Cc1c(-c2ccnc(C3CC3)n2)nc2n(c1=O)CCCS2 [Example 180] next?
< 10%

Continue with CC(C)(C)c1ccc(-c2nc3n(c(=O)c2C#N)CC(C(F)(F)F)CS3)cn1 (stereo not drawn) [Example 143]
100 to 500%
